Where do the numbers come from? From paper PMC8037182.

Tested on: L929 cell line
Assay: Cytotoxicity MTS assay, L929 cell line
Type: cell-based
Conditions: MTS assay, 24 h exposure; ordinary fibroblast, not cancer cells
Procedure: The positive compounds (IC50 < 100 μM) obtained from the primary Eg5 motor protein ATPase assay were tested for antiproliferative activity in vitro against Caco-2 cell line, Hela cell line, L929 cell line and T24 cell line by performing MTS assay. Cells were introduced into 96-well plates at a density of 1000 cells per well. After 24 h incubation, the cells were exposed with compounds at final concentrations ranging from 0.5 to 100 µM for 24 h. […]
IC50: recorded values
Expressed in µM, but write only the number.

- compound: "CCOC(=O)c1c(C2NC(=O)NC(C)=C2C(=O)Nc2ccccc2OC)[nH]c(C(=O)OC)c1C (stereo not shown) [D1]"
  value: 125

Query string: Look up IC50 of CCOC(=O)c1[nH]c(C2NC(=O)NC(C)=C2C(=O)Nc2ccccc2C)c(C(=O)OC)c1C (stereo not shown) and report it.
Result string: 94.5

====

Test system: Caco-2 cell line
Test: Cytotoxicity MTS assay, Caco-2 cell line
Format: cell-based
Conditions: 50μM; second assay; Caco-2 cell line
measured-metric: OD490 Mean
Would you mind answering with just the numeric figure?

- compound: "CCOC(=O)c1c(C2NC(=O)NC(C)=C2C(=O)Nc2ccccc2OC)[nH]c(C(=O)OC)c1C (stereo not shown) [D1]"
  OD490 Mean: 0.5178

Query string: Look up OD490 Mean of CCOc1ccccc1C1NC(=S)NC(C)=C1C(=O)Nc1ccc(Cl)cc1 (stereo not shown) and report it.
Result string: 0.4117

Query string: Look up OD490 Mean of CCOC(=O)c1c(C2NC(=O)NC(C)=C2C(=O)Nc2ccccc2)[nH]c(C(=O)OC)c1C (stereo not shown) and report it.
Result string: 0.4763

Query string: Look up OD490 Mean of CCOC(=O)c1[nH]c(C2NC(=O)NC(C)=C2C(=O)Nc2ccccc2C)c(C(=O)OC)c1C (stereo not shown) and report it.
Result string: 0.4399

====

Test system: T24 cell line
Experiment: Cytotoxicity MTS assay, T24 cell line;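 note: blank control wells received 0.025% DMSO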
Assay type: cell-based
Conditions: T24 cell line, 50μM, third assay
measured-metric: OD490 Well 3

Before answering, review these 3 worked examples.
- compound: "CCOc1ccccc1C1NC(=S)NC(C)=C1C(=O)Nc1ccc(Cl)cc1 (stereo not shown)"
  OD490 Well 3: 1.2985
- compound: "CCOC(=O)c1[nH]c(C2NC(=O)NC(C)=C2C(=O)Nc2ccccc2C)c(C(=O)OC)c1C (stereo not shown)"
  OD490 Well 3: 1.4202
- compound: "CCOC(=O)c1c(C2NC(=O)NC(C)=C2C(=O)Nc2ccccc2OC)[nH]c(C(=O)OC)c1C (stereo not shown) [D1]"
  OD490 Well 3: 1.4336

Proceeding to the next compound to report its OD490 Well 3.
Query string: Look up OD490 Well 3 of CCOC(=O)C1=C(C)NC(=S)NC1c1cccc(O)c1 (stereo not shown) [Monastrol, monastrol, reference compound] and report it.
Result string: 1.4820

====

Test system: Hela cell line
Assay: Cytotoxicity MTS assay, Hela cell line;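 note: blank control wells received 0.025% DMSO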
Type: cell-based
Settings: Hela cell line, MTS, 10μM, first assay
Description: The positive compounds (IC50 < 100 μM) obtained from the primary Eg5 motor protein ATPase assay were tested for antiproliferative activity in vitro against Caco-2 cell line, Hela cell line, L929 cell line and T24 cell line by performing MTS assay. Cells were introduced into 96-well plates at a density of 1000 cells per well. After 24 h incubation, the cells were exposed with compounds at final concentrations ranging from 0.5 to 100 µM for 24 h. […]
OD490 value, Well 1: recorded values

Before answering, review these 2 worked examples.
- molecule: "CCOC(=O)c1[nH]c(C2NC(=O)NC(C)=C2C(=O)Nc2ccccc2OC)c(C(=O)OC)c1C (stereo not shown)"
  value: 2.6883
- molecule: "CCOC(=O)c1[nH]c(C2NC(=S)NC(C)=C2C(=O)OC)c(C(=O)OCC)c1C (stereo not shown)"
  value: 2.5708

Query string: Look up OD490 value, Well 1 of CCOC(=O)c1[nH]c(C2NC(=O)NC(C)=C2C(=O)Nc2ccc(Cl)cc2)c(C(=O)OCC)c1C (stereo not shown) and report it.
Result string: 2.7201

Query string: Look up OD490 value, Well 1 of CCOC(=O)c1[nH]c(C2NC(=O)NC(C)=C2C(=O)Nc2ccccc2C)c(C(=O)OC)c1C (stereo not shown) and report it.
Result string: 2.6331

====

Tested on: Hela cell line
Assay: Cytotoxicity MTS assay, Hela cell line;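 note: blank control wells received 0.025% DMSO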
Assay type: cell-based
Settings: Hela cell line, MTS, 100μM, first assay
measured-metric: OD490 value, Well 2
Would you mind answering with just the numeric figure?

Before answering, review these 5 worked examples.
- compound: "CCOC(=O)c1[nH]c(C2NC(=O)NC(C)=C2C(=O)Nc2ccccc2C)c(C(=O)OC)c1C (centres unmarked) [D4]"
  target-under-test: "Hela cell line"
  OD490 value, Well 2: 1.9524
- compound: "CCOC(=O)c1c(C2NC(=O)NC(C)=C2C(=O)Nc2ccccc2C)[nH]c(C(=O)OC)c1C (centres unmarked) [D2]"
  target-under-test: "Hela cell line"
  OD490 value, Well 2: 1.9699
- compound: "CCOC(=O)c1[nH]c(C2NC(=O)NC(C)=C2C(=O)Nc2ccccc2OC)c(C(=O)OC)c1C (centres unmarked) [D3]"
  target-under-test: "Hela cell line"
  OD490 value, Well 2: 1.8895
- compound: "CCOC(=O)c1[nH]c(C2NC(=S)NC(C)=C2C(=O)OC)c(C(=O)OCC)c1C (centres unmarked) [D12]"
  target-under-test: "Hela cell line"
  OD490 value, Well 2: 2.1799
- compound: "CCOC(=O)c1[nH]c(C2NC(=O)NC(C)=C2C(=O)Nc2ccc(Cl)cc2)c(C(=O)OCC)c1C (centres unmarked) [D7]"
  target-under-test: "Hela cell line"
  OD490 value, Well 2: 1.9083

Query string: Look up OD490 value, Well 2 of CCOc1ccccc1C1NC(=S)NC(C)=C1C(=O)Nc1ccc(Cl)cc1 (centres unmarked) [C9] and report it.
Result string: 1.2917

Query string: Look up OD490 value, Well 2 of CCOC(=O)c1c(C2NC(=O)NC(C)=C2C(=O)Nc2ccccc2OC)[nH]c(C(=O)OC)c1C (centres unmarked) [D1] and report it.
Result string: 1.9576

Query string: Look up OD490 value, Well 2 of CCOC(=O)c1c(C2NC(=O)NC(C)=C2C(=O)Nc2ccccc2)[nH]c(C(=O)OC)c1C (centres unmarked) [D10] and report it.
Result string: 1.7430

====

OD490 Well 3: recorded values
Test system: Caco-2 cell line
Experiment: Cytotoxicity MTS assay, Caco-2 cell line
Assay type: cell-based
Details: 100μM; second assay; Caco-2 cell line
Would you mind answering with just the numeric figure?

Before answering, review these 9 worked examples.
- molecule: "CCOC(=O)c1[nH]c(C2NC(=O)NC(C)=C2C(=O)Nc2ccccc2C)c(C(=O)OC)c1C (stereo not shown)"
  OD490 Well 3: 0.3741
- molecule: "CCOC(=O)c1[nH]c(C2NC(=O)NC(C)=C2C(=O)Nc2ccccc2OC)c(C(=O)OC)c1C (stereo not shown)"
  OD490 Well 3: 0.7086
- molecule: "CCOc1ccccc1C1NC(=S)NC(C)=C1C(=O)Nc1ccc(Cl)cc1 (stereo not shown)"
  OD490 Well 3: 0.2965
- molecule: "CCOC(=O)c1[nH]c(C2NC(=S)NC(C)=C2C(=O)OC)c(C(=O)OCC)c1C (stereo not shown)"
  OD490 Well 3: 0.5498
- molecule: "CCOC(=O)c1[nH]c(C2NC(=O)NC(C)=C2C(=O)Nc2ccc(Cl)cc2)c(C(=O)OCC)c1C (stereo not shown)"
  OD490 Well 3: 0.4398
- molecule: "CCOC(=O)C1=C(C)NC(=S)NC1c1cccc(O)c1 (stereo not shown) [Monastrol, monastrol, reference compound]"
  OD490 Well 3: 0.4809
- molecule: "CCOC(=O)c1c(C2NC(=O)NC(C)=C2C(=O)Nc2ccccc2)[nH]c(C(=O)OC)c1C (stereo not shown)"
  OD490 Well 3: 0.4463
- molecule: "CCOC(=O)c1c(C2NC(=O)NC(C)=C2C(=O)Nc2ccccc2C)[nH]c(C(=O)OC)c1C (stereo not shown) [D2]"
  OD490 Well 3: 0.5332
- molecule: "CCOC(=O)c1c(C2NC(=O)NC(C)=C2C(=O)Nc2ccccc2OC)[nH]c(C(=O)OC)c1C (stereo not shown) [D1]"
  OD490 Well 3: 0.4431

Proceeding to the next molecule to report its OD490 Well 3.
Query string: Look up OD490 Well 3 of COC(=O)c1[nH]c(C2NC(=S)NC(C)=C2C(=O)c2ccccc2)c(C(=O)OC)c1C (stereo not shown) and report it.
Result string: 0.4878

====

Tested on: L929 cell line
Experiment: Cytotoxicity MTS assay, L929 cell line
Type: cell-based
Conditions: L929 cell line, 100μM, first assay
Method: The positive compounds (IC50 < 100 μM) obtained from the primary Eg5 motor protein ATPase assay were tested for antiproliferative activity in vitro against Caco-2 cell line, Hela cell line, L929 cell line and T24 cell line by performing MTS assay. Cells were introduced into 96-well plates at a density of 1000 cells per well. After 24 h incubation, the cells were exposed with compounds at final concentrations ranging from 0.5 to 100 µM for 24 h. […]
OD490 values, Well 1: recorded values
Would you mind answering with just the numeric figure?

Before answering, review these 9 worked examples.
- molecule: "CCOC(=O)c1c(C2NC(=O)NC(C)=C2C(=O)Nc2ccccc2C)[nH]c(C(=O)OC)c1C (stereo not shown) [D2]"
  target-under-test: "L929 cell line"
  OD490 values, Well 1: 1.2364
- molecule: "CCOC(=O)c1c(C2NC(=O)NC(C)=C2C(=O)Nc2ccccc2OC)[nH]c(C(=O)OC)c1C (stereo not shown) [D1]"
  target-under-test: "L929 cell line"
  OD490 values, Well 1: 1.1234
- molecule: "CCOC(=O)c1[nH]c(C2NC(=O)NC(C)=C2C(=O)Nc2ccc(Cl)cc2)c(C(=O)OCC)c1C (stereo not shown)"
  target-under-test: "L929 cell line"
  OD490 values, Well 1: 0.7427
- molecule: "CCOC(=O)c1[nH]c(C2NC(=S)NC(C)=C2C(=O)OC)c(C(=O)OCC)c1C (stereo not shown)"
  target-under-test: "L929 cell line"
  OD490 values, Well 1: 0.8752
- molecule: "CCOC(=O)C1=C(C)NC(=S)NC1c1cccc(O)c1 (stereo not shown) [Monastrol, monastrol, reference compound]"
  target-under-test: "L929 cell line"
  OD490 values, Well 1: 1.0639
- molecule: "CCOc1ccccc1C1NC(=S)NC(C)=C1C(=O)Nc1ccc(Cl)cc1 (stereo not shown)"
  target-under-test: "L929 cell line"
  OD490 values, Well 1: 0.6518
- molecule: "COC(=O)c1[nH]c(C2NC(=S)NC(C)=C2C(=O)c2ccccc2)c(C(=O)OC)c1C (stereo not shown)"
  target-under-test: "L929 cell line"
  OD490 values, Well 1: 0.7506
- molecule: "CCOC(=O)c1[nH]c(C2NC(=O)NC(C)=C2C(=O)Nc2ccccc2OC)c(C(=O)OC)c1C (stereo not shown)"
  target-under-test: "L929 cell line"
  OD490 values, Well 1: 1.0930
- molecule: "CCOC(=O)c1c(C2NC(=O)NC(C)=C2C(=O)Nc2ccccc2)[nH]c(C(=O)OC)c1C (stereo not shown)"
  target-under-test: "L929 cell line"
  OD490 values, Well 1: 0.8725

Proceeding to the next molecule to report its OD490 values, Well 1.
Query string: Look up OD490 values, Well 1 of CCOC(=O)c1[nH]c(C2NC(=O)NC(C)=C2C(=O)Nc2ccccc2C)c(C(=O)OC)c1C (stereo not shown) and report it.
Result string: 0.8384
